Entries and their IC50 values follow.
# target_under_test: Escherichia coli LpxC enzyme (Escherichia coli)
# Construct: made in house; host or cells: Escherichia coli
# Sequence (P0A725 1-305): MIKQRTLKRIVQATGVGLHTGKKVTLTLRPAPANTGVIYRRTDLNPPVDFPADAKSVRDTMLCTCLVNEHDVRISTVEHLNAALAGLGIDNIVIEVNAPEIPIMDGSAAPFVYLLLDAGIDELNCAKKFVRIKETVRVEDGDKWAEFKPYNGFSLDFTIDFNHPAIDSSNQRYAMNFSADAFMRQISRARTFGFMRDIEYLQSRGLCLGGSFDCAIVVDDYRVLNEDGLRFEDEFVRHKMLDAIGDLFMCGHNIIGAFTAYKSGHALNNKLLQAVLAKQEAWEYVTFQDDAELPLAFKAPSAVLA
# test_summary: Inhibitory activity on Escherichia coli LpxC enzyme (fluorescamine method)
# Assay type: biochemical
# measurement_conditions: fluorescamine detection; 3.1 nmol/L enzyme, 20 μmol/L substrate, pH 6.5, 120 min; read-out: IC50 (inhibitory activity on Escherichia coli LpxC enzyme, Fluoresamine method)
Report the figure in nM without appending any unit label.

In [3]: df
Out[3]:
                                   molecule  quantity_unit  numeric_value
0  C[C@H](O)c1nccn1Cc1cc(-c2ccc(C#CC3CC3N)cc2)on1 (stereo in doubt)             nM            183
1  C[C@H](O)c1nccn1Cc1cc(-c2ccc(C#C[C@@H]3[C@H]4CNC[C@@H]34)cc2)on1             nM            123
2  C[C@H](O)c1nccn1Cc1cc(-c2ccc(C#CC3C4COCC34)cc2)on1 (stereo partly shown)             nM           13.4
3  C[C@H](O)c1nccn1Cc1cc(-c2ccc(C#CCNC3CC3)cc2)on1             nM            182
4  C[C@H](O)c1nccn1Cc1cc(-c2ccc(C#CC3CCN(C=O)CC3)cc2)on1             nM           60.1
5  CC(=O)N1C[C@@H]2[C@@H](C#Cc3ccc(-c4cc(Cn5ccnc5[C@H](C)O)on4)cc3)[C@@H]2C1             nM           46.4

Ask | So what does the record say about IC50 for C[C@H](O)c1nccn1[C@H](CN)c1cc(-c2ccc(C#CC3CC3CO)cc2)on1 (relative stereo) ?
Reply | 80.7

Ask | Can you look up the measured IC50 of `C[C@H](O)c1nccn1Cc1cc(-c2ccc(C#CC3(N(C)C)CC3)cc2)on1` for me?
Reply | 205

Ask | What does the record list as IC50 for `CNC(=O)C(=O)N1C[C@@H]2[C@@H](C#Cc3ccc(-c4cc(Cn5ccnc5[C@H](C)O)no4)cc3)[C@@H]2C1` ?
Reply | 63.8

Ask | Query (molecule): C[C@H](O)c1nccn1Cc1cc(-c2ccc(C#CC3CCOC3)cc2)on1 (stereo partly shown) ; field requested: IC50
Reply | 29.6

Ask | So what does the record say about IC50 for `C[C@H](O)c1nccn1[C@H](CO)c1cc(-c2ccc(C#C[C@@H]3[C@H]4CN(CCO)C[C@@H]34)cc2)on1` ?
Reply | 259

Ask | Fill in the blank: the reported IC50 of CC(O)CN1C[C@@H]2[C@@H](C#Cc3ccc(-c4cc(Cn5ccnc5[C@H](C)O)no4)cc3)[C@@H]2C1 (stereo partly shown) is ____.
Reply | 97.7

Ask | Record request: IC50 value, item `C[C@H](O)c1nccn1Cc1cc(-c2ccc(C#C[C@@H]3[C@H]4CN(CC5COC5)C[C@@H]34)cc2)on1`
Reply | 46.8

Ask | Record request: IC50 value, item `CC(=O)N1C[C@@H]2[C@@H](C#Cc3ccc(-c4cc(Cn5ccnc5[C@H](C)O)no4)cc3)[C@@H]2C1`
Reply | 58.2

Ask | Param item = `COCCN1C[C@@H]2[C@@H](C#Cc3ccc(-c4cc(Cn5ccnc5[C@H](C)O)no4)cc3)[C@@H]2C1` ; retrieve measured IC50.
Reply | 108

Ask | Dear colleague, I am looking for the recorded IC50 of the following molecule: `C[C@H](O)c1nccn1Cc1cc(-c2ccc(C#C[C@@H]3[C@H]4CN(C=O)C[C@@H]34)cc2)no1`
Reply | 103

Ask | Reported IC50 for `C[C@H](O)c1nccn1Cc1cc(-c2ccc(C#C[C@@H]3[C@H]4CN(C(CO)CO)C[C@@H]34)cc2)on1` : what is it?
Reply | 83.7

Ask | Which measured IC50 value corresponds to `COCCN1C[C@@H]2[C@@H](C#Cc3ccc(-c4cc(Cn5ccnc5[C@H](C)O)on4)cc3)[C@@H]2C1` ?
Reply | 102

Ask | Look at this molecule and give its reported IC50. `C[C@H](O)c1nccn1Cc1cc(-c2ccc(C#C[C@@H]3[C@H]4CN(C(=O)C(N)=O)C[C@@H]34)cc2)on1`
Reply | 78.6
